- tested-system: human recombinant adrenergic α1D receptor (Homo sapiens)
- Construct: expressed in transfected cells; host or cells: HEK-293
- Sequence (P25100 1-572): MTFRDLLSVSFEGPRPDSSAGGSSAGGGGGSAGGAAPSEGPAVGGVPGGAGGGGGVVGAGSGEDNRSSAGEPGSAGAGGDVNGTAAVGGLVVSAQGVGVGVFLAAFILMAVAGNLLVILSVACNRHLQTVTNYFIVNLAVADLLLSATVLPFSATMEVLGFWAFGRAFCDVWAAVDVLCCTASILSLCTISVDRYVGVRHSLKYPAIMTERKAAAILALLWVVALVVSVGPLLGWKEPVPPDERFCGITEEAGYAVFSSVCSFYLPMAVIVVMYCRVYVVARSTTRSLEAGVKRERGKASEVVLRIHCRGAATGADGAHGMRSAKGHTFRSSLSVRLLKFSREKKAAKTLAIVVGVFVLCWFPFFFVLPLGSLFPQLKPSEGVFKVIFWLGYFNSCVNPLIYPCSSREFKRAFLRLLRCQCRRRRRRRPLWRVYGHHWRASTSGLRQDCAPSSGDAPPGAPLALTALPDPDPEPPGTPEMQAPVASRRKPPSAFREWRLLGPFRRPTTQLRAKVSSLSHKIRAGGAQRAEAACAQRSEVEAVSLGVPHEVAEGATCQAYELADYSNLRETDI
- protocol-description: Radioligand binding, adrenergic α1D ([3H]Prazosin)
- assay-conditions: compound at 0.1 μM; [3H]Prazosin; repeat assays, each datapoint shown; read-out: Percentage inhibition of ligand binding, Adrenergic α1D
readout: inhibition at 0.1 µM

• Cc1ccc2c(c1)c1c(n2CC(C)(O)c2ccc(F)cc2)CCN(C)C1 (centres unmarked) [compound 90] = 20%
• CCc1ccc(CCn2c3c(c4cc(C)ccc42)CN(C)CC3)cn1 [compound 89] = 68%
• Cc1ccc2c(c1)c1c(n2CCc2cccnc2)CCN(C)C1 [compound 61] = 37%
• Cc1ccc2c(c1)c1c(n2CC(O)c2ccncc2)CCN(C)C1 (centres unmarked) [compound 3] = 12%
• Cc1ccc2c(c1)c1c(n2CC(C)(O)c2ccc(C)nc2)CCN(C)C1 (centres unmarked) [compound 29] = 1%
• Cc1ccc2c(c1)c1c(n2CC(O)c2ccncc2)CCN(C)C1 (single isomer, unassigned) [3b] = 18%
• C/C(=C\n1c2c(c3cc(C)cnc31)CN(C)CC2)c1ccc(C)nc1 [compound 78] = 22%
• Cc1ccc2c(c1)c1c(n2CCc2ccccn2)CCN(C)C1 [compound 84] = 36%
• Cc1ccc2c(c1)c1c(n2CC(C)(O)c2ccncc2)CCN(C)C1 (centres unmarked) [compound 2] = 13%
• Cc1ccc2c(c1)c1c(n2CC(O)c2ccc(F)cc2)CCN(C)C1 (centres unmarked) [compound 30] = 49%
• CCCCC(O)(Cn1c2c(c3cc(Cl)ccc31)CN(C)CC2)c1ccc(F)cc1 (centres unmarked) [33a] = 23%
• CN1CCc2c(c3cc(Cl)ccc3n2CCC(=O)OCC2CCCCC2)C1 [compound 87] = 24%
• CN1CCc2c(c3cccc(Cl)c3n2CC(C)(O)c2ccncc2)C1 (centres unmarked) [compound 32] = 7%
• CN1CCc2c(c3cc(Cl)ccc3n2CCC(=O)OC2CCCC2)C1 [compound 88] = 36%
• CN1CCc2c(c3cc(Cl)ccc3n2CCc2cccnc2)C1 [compound 60] = 35%
• Cc1cnc2c(c1)c1c(n2CCc2ccc(C)nc2)CCN2CCCC12 (centres unmarked) [compound 74] = 57%
• Cc1ccc2c(c1)c1c(n2CCc2ccc(CO)nc2)CCN(C)C1 [compound 91] = 25%
